target: T1, HCV Core1-169 (HCV-1, UniProt P26664 1-169)
T1 construct: also called recombinant HCV core antigen
T1 sequence: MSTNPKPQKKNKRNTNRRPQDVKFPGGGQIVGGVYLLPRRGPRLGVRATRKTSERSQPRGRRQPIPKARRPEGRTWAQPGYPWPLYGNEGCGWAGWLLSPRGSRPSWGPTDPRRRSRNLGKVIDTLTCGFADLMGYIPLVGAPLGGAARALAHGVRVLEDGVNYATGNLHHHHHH
assayRemarks: EIA, core1-169 captured by mAb 14-153-229; note: test concentration or dose not given here
readout: OD (A492) (OD)
Just the number in OD, nothing appended.

In plain terms, HCV 208A-741 (antibody, V domains shown) VH: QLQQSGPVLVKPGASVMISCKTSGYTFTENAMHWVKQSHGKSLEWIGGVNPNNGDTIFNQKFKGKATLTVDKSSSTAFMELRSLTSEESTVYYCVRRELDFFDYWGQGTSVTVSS VL: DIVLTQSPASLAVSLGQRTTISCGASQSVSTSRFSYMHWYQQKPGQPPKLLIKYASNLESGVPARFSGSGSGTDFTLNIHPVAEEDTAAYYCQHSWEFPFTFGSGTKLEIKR has a documented OD (A492) of 1.9

In plain terms, HCV 208B-1096 (antibody, V domains shown) VH: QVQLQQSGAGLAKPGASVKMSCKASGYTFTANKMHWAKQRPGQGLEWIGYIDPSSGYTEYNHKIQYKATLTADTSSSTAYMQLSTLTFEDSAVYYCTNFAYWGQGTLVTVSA VL: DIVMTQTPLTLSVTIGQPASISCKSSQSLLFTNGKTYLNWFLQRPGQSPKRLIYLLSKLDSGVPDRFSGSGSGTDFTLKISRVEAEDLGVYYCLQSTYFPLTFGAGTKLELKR has a documented OD (A492) of 1.75

In plain terms, HCV 208A-293 (antibody, V domains shown) VH: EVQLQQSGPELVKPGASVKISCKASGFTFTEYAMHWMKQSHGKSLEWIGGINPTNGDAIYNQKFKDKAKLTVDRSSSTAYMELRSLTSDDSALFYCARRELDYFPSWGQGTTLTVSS VL: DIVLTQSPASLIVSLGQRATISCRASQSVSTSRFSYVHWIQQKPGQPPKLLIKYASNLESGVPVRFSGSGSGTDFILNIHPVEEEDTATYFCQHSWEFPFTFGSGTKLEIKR has a documented OD (A492) of 2.31
